Biological target: ERα (Homo sapiens, UniProt P03372)
Sequence (P03372 1-595): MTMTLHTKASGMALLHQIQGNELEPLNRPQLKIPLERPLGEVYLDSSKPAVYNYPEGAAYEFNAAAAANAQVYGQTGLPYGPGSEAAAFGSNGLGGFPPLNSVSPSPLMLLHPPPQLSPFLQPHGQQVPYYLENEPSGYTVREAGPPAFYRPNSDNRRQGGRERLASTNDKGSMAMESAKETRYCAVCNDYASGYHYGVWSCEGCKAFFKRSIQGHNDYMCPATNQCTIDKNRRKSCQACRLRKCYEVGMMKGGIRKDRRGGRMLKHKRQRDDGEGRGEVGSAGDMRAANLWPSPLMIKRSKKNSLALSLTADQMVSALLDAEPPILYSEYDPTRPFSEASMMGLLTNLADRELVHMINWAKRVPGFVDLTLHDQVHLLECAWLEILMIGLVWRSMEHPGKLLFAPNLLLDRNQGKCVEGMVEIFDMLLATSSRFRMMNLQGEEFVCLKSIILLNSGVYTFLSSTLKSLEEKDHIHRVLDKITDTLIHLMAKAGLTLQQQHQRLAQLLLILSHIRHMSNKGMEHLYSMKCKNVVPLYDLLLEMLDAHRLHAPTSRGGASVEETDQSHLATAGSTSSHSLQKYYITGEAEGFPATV
Assay: Degradation of ERα in MCF-7 cells (immunoblotting, 4 h)
Assay type: cell-based
Conditions: 1nM compound
observable: Degradation rate (%) of ERα in MCF-7 cells
Numbers only, in %.

O=C1CCC(N2C(=O)c3cc4c(cc3C2=O)C2(CCN(C3CC5(CCN(c6ccc([C@@H]7c8ccc(O)cc8CC[C@@H]7c7ccccc7)cc6)CC5)C3)CC2)CO4)C(=O)N1 (some centres unmarked) :: 4

Answer for every listed entry: what is its Degradation rate (%) of ERα in MCF-7 cells? The entries follow.
1. CN(C(=O)CN1CCC2(CC1)COc1c2ccc2c1C(=O)N(C1CCC(=O)NC1=O)C2=O)C1CCC2(CC1)CCN(c1ccc([C@@H]3c4ccc(O)cc4CC[C@@H]3c3ccccc3)cc1)CC2 (some centres unmarked)
2. C[C@H]1CN(c2ccc([C@@H]3c4ccc(O)cc4CC[C@@H]3c3ccccc3)cc2)CCN1C[C@H]1CC[C@H](C(=O)N2CCC3(CC2)COc2c3ccc3c2CN(C2CCC(=O)NC2=O)C3=O)CC1 (some centres unmarked)
3. O=C1CCC(N2Cc3cc4c(cc3C2=O)OC2(CC4)CN(C3CC4(C3)CC3(CCN(c5ccc([C@@H]6c7ccc(O)cc7CC[C@@H]6c6ccccc6)cc5)CC3)C4)C2)C(=O)N1 (some centres unmarked)
4. C[C@@H]1Cc2cc(O)ccc2[C@@H](c2c(F)cc(N3CC4(CCC(N5CCC6(CC5)COc5c6ccc6c5CN(C5CCC(=O)NC5=O)C6=O)CC4)C3)cc2F)N1CC(F)(F)F (some centres unmarked)

1. 18
2. 55
3. -9
4. 39

###

Molecular target: ERα (Homo sapiens)
Assay: Degradation of ERα in MCF-7 cells (immunoblotting, 4 h)
Type: cell-based
Conditions: 1nM compound
observable: Degradation rate (%) of ERα in MCF-7 cells
Give bare numbers, in %.

Examples from the recorded data:
O=C1CCC(N2Cc3c(ccc4c3OCC43CCN(C4CC5(CCN(C6CCN(c7ccc([C@@H]8c9ccc(O)cc9CC[C@@H]8c8ccccc8)cc7)CC6)CC5)C4)CC3)C2=O)C(=O)N1 (stereo partly shown) :: 48
C[C@@H]1Cc2c(ccc3[nH]ncc23)[C@@H](c2c(F)cc(N3CCC4(CCN(CC(=O)N5CCC6(CC5)COc5c6ccc6c5CN(C5CCC(=O)NC5=O)C6=O)CC4)CC3)cc2F)N1CC(F)F (stereo partly shown) :: 53
O=C1CCC(N2Cc3cc4c(cc3C2=O)CCC2(CN(CC3CCC5(CC3)CCN(c3ccc([C@@H]6c7ccc(O)cc7CC[C@@H]6c6ccccc6)cc3)CC5)C2)O4)C(=O)N1 (stereo partly shown) :: -1
COC1(CN2CCC3(CC2)COc2c3ccc3c2CN(C2CCC(=O)NC2=O)C3=O)CCN(C(=O)C2CCN(c3ccc([C@@H]4c5ccc(O)cc5CC[C@@H]4c4ccccc4)cc3)CC2)CC1 (stereo partly shown) :: 38
O=C1CCC(N2Cc3c(ccc4c3OCC43CCN(CC4CCN(C(=O)C5CCN(c6ccc([C@@H]7c8ccc(O)cc8CC[C@@H]7c7ccccc7)cc6)CC5)CC4)CC3)C2=O)C(=O)N1 (stereo partly shown) :: 65

Answer for every listed entry: what is its Degradation rate (%) of ERα in MCF-7 cells? The entries follow.
1. O=C1CCC(N2Cc3c(ccc4c3OCC43CCN(C4CCN(C5CC6(CCN(c7ccc([C@@H]8c9ccc(O)cc9CC[C@@H]8c8ccccc8)cc7)CC6)C5)[C@H](C(=O)NC5CCCC5)C4)CC3)C2=O)C(=O)N1 (stereo partly shown)
2. O=C1CCC(N2Cc3ccc4c(c3C2=O)OCC42CCN(C3CC4(CCN(c5ccc([C@@H]6c7ccc(O)cc7CC[C@@H]6c6ccccc6)cc5)CC4)C3)CC2)C(=O)N1 (stereo partly shown)

36
10

Answer for every listed entry: what is its Degradation rate (%) of ERα in MCF-7 cells? The entries follow.
1. O=C1CCC(N2Cc3c(ccc4c3OCC43CCN(C(=O)CN4CC[C@]5(CCN(c6ccc([C@@H]7c8ccc(O)cc8CC[C@@H]7c7ccccc7)cc6)C5)C4)CC3)C2=O)C(=O)N1 (stereo partly shown)
2. O=C1CCC(N2Cc3c(ccc4c3OCC43CCN(C(=O)[C@H]4CC[C@H](OC5CCN(c6ccc([C@@H]7c8ccc(O)cc8CC[C@@H]7c7ccccc7)cc6)CC5)CC4)CC3)C2=O)C(=O)N1 (stereo partly shown)
3. CN(CC(=O)N1CCC2(CC1)COc1c2ccc2c1CN(C1CCC(=O)NC1=O)C2=O)C1CCC2(CC1)CN(c1ccc([C@@H]3c4ccc(O)cc4CC[C@@H]3c3ccccc3)cc1)C2 (stereo partly shown)

1: 18; 2: 9; 3: 53
